Every entry's value here was drawn from the NIST ThermoML archive (doi:10.1021/je0601208).

Assay: refractive index (Na D-line) (dimensionless); xn = mol fraction of the nth substance listed
Details: 298.15 K; 100.5 kPa; Liquid; Standard Abbe refractometry; x1 = 0.7
± gives the expanded uncertainty stated by the source.
Each entry below carries its recorded refractive index.
Measurement kind: refractive index

1) CCCC(=O)OCCC(C)C [3-methylbutyl butanoate] + CCO = 1.4023 ± 0.00033
2) CCOC(=O)c1ccccc1 [ethyl benzoate] + CCO = 1.48273 ± 0.00032
3) CC(=O)OCCC(C)C [3-methylbutyl ethanoate] + CCO = 1.39265 ± 0.00033
4) CCOC(=O)Cc1ccccc1 [ethyl phenylacetate] + CCO = 1.47713 ± 0.00033
5) CCCCCC(=O)OCC [ethyl hexanoate] + CCO = 1.39895 ± 0.00032
6) CCCCCCCC(=O)OCC [ethyl octanoate] + CCO = 1.40917 ± 0.00032
